Attribution: patent US20240101635A1

# ASSAYED_TARGET: biotinylated canine FcRn (canine, UniProt A0A8I3PFR8 25-347, biotinylated (site not stated))
# Sequence (A0A8I3PFR8 entry or part of it): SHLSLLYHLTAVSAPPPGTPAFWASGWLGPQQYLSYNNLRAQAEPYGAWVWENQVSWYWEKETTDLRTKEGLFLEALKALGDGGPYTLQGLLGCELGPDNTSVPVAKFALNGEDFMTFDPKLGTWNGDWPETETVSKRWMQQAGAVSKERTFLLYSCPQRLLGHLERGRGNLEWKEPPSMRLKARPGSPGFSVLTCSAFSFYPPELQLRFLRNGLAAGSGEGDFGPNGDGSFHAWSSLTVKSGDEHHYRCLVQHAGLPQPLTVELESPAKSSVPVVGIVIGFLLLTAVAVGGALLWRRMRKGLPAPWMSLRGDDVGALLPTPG
# PROCEDURE_SUMMARY: ELISA pH 5.5, fusion protein coated, biotinylated canine FcRn titrated
MEASUREMENT_NAME: EC50 (µg/mL)
Value expressed in µg/mL; do not type the unit.

So what's the measured EC50 for this one? insulin-Fc fusion protein of SEQ ID NO: 38 (Fc fusion, homodimer) FVNQHLCGSHLVEALELVCGERGFHYGGGGGGSGGGGGIVEQCCTSTCSLDQLENYCGGGGGQGGGGQGGGGQGGGGGDCPKCPPPEMLGGPSIFIFPPKPKDTLSISRTPEVTCLVVDLGPDDSDVQITWFVDNTQVYTAKTSPREEQFNSTYRVVSVLPILHQDWLKGKEFKCKVNSKSLPSPIERTISKDKGQPHEPQVYVLPPAQEELSRNKVSVTCLIEGFYPSDIAVEWEITGQPEPENNYRTTPPQLDSDGTYFLYSRLSVDRSRWQRGNTYTCSVSHEALHSHHTQKSLTQSPG
1.55
